Target: Bifunctional 3'-5' exonuclease/ATP-dependent helicase WRN (Homo sapiens, UniProt Q14191)
Sequence (Q14191 whole entry): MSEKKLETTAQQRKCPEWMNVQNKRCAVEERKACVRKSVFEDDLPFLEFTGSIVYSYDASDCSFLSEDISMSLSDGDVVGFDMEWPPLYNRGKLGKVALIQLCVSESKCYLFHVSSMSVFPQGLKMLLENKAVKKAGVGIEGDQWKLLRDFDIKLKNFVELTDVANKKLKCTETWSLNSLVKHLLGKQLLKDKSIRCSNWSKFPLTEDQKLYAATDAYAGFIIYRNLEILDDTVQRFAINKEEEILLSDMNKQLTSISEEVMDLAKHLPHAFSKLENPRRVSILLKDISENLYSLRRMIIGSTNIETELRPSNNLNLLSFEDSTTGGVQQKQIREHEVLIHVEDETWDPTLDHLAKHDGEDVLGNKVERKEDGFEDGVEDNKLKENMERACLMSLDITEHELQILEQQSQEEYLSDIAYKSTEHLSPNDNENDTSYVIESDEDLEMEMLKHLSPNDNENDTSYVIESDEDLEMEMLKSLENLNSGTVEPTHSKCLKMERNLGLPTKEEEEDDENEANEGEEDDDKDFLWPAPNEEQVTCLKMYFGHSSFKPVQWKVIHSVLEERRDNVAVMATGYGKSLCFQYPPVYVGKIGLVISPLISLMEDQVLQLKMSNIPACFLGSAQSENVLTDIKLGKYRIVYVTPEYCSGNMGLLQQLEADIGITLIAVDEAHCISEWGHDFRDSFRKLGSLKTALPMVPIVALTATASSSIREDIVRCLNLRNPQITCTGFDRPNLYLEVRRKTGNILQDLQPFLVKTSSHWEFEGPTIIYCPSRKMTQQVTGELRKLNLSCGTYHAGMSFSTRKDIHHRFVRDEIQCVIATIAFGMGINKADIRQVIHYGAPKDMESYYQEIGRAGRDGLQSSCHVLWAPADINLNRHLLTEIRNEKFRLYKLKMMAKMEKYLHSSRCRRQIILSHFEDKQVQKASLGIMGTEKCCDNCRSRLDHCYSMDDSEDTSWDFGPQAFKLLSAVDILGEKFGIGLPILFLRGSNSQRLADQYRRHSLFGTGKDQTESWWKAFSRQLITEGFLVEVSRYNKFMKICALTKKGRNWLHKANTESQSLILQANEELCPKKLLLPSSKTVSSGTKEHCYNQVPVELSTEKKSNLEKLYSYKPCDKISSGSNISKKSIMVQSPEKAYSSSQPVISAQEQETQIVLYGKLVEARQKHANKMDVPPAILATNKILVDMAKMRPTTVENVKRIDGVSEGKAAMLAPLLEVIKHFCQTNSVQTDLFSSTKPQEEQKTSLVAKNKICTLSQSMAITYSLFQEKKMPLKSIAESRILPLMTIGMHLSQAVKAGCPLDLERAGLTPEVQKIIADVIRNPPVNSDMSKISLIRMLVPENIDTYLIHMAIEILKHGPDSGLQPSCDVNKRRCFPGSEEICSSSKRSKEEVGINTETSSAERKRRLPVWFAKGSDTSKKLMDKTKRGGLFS
Test: ADP-Glo Kinase Assay
OUTCOME MEASURE: pIC50
// pIC50 is dimensionless: -log10 of concentration (M)

Known results for compounds:
COMPOUND	pIC50
CCc1c(N2CCN(C(=O)c3csc4cncnc34)CC2)c(=O)n2nc(C3=CCOCC3)nc2n1CC(=O)Nc1ccc(C(F)(F)F)cc1Cl [WO2025049746, Example 43]	7.19
CCc1c(N2CCN(C(=O)c3cc4nnn(C)c4cc3O)CC2)c(=O)n2nc(-c3ccc4c(c3)COC4)nc2n1CC(=O)Nc1ccc(C(F)(F)F)cc1Cl [WO2025049746, Example 433]	6.86
CCc1c(N2CCN(C(=O)c3ncnc(C)c3O)CC2)c(=O)n2nc(-c3cccc4c3OCCO4)nc2n1CC(=O)Nc1c(Cl)cc(C(F)(F)F)c2c1CC2 [WO2025049746, Example 388]	7.06

Continue with the compound presented below.
// query Give measured pIC50 for CCc1c(N2CCN(C(=O)c3ncnc(C)c3O)CC2)c(=O)n2nc(-c3ccc4nc(C)cn4c3)nc2n1CC(=O)Nc1ccc(C(F)(F)F)cc1Cl [WO2025049746, Example 255] (Bifunctional 3'-5' exonuclease/ATP-dependent helicase WRN (Homo sapiens, UniProt Q14191)).
// result 7.64

----------
Entries annotated with measured IC50
Molecular target: Bifunctional 3'-5' exonuclease/ATP-dependent helicase WRN [480-1251] (UniProt Q14191)
Construct: 480-1251
Sequence (Q14191 480-1251): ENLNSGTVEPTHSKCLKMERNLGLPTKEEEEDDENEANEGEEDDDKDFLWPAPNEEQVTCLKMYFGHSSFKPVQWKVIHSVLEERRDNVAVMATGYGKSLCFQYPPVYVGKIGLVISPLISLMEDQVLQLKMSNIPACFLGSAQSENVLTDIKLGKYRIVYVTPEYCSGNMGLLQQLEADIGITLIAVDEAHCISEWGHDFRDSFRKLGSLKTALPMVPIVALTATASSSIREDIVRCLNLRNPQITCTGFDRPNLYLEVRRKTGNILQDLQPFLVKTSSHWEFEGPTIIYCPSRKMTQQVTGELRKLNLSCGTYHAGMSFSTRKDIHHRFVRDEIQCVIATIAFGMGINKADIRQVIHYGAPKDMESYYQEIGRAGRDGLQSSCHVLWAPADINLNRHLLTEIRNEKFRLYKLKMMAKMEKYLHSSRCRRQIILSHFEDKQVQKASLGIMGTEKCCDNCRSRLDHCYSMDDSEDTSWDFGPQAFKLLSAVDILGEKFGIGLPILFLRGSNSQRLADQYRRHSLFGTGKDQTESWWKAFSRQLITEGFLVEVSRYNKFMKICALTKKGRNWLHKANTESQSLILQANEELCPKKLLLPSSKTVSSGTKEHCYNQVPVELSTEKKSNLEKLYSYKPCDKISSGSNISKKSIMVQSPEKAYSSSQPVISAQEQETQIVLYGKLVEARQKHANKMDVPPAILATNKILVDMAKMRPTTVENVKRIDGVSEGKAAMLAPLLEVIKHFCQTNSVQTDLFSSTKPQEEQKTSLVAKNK
Experiment: Biochemical Activity Assays
Method: The pure fractions were pooled and desalted/buffer exchanged into storage buffer using a HiTrap desalting column. […] First, WRN alone was pre-incubated with DMSO or compound of interest for 15 minutes. To initiate the reaction, ATP, dsDNA substrate, and ssDNA competitor (ssDNA_comp: […]) were added and incubated at room temperature for 20 minutes at which point DNA unwinding activity was monitored by measuring Cy3 fluorescence. […]
Record the value in nM, omitting the unit from your answer.

Known results for compounds:
In [3]: df
Out[3]:
                              record_smiles                           target_of_assay  outcome_measure  scale_unit  measured
0  CCc1c(N2CCN(C(=O)c3ncnc(C)c3O)CC2)c(=O)n2nc(C3=CCOCC3)nc2n1CC(=O)Nc1ccc(C(F)(F)F)c2scnc12  Bifunctional 3'-5' exonuclease/ATP-dependent helicase WRN [480-1251] (UniProt Q14191)             IC50          nM        30
1  CCc1c(N2CCN(C(=O)c3ncnc(C)c3O)CC2)c(=O)n2nc(-c3ccc4c(c3)COC43CN(C)C3)nc2n1CC(=O)Nc1ccc(C(F)(F)F)cc1Cl  Bifunctional 3'-5' exonuclease/ATP-dependent helicase WRN [480-1251] (UniProt Q14191)             IC50          nM        45
2  CCc1c(N2CCN(C(=O)c3ncnc(C)c3O)CC2)c(=O)n2nc(-c3cc4c(cc3F)C(C)(C)OC4)nc2n1CC(=O)Nc1ccc(C(F)(F)F)cc1Cl  Bifunctional 3'-5' exonuclease/ATP-dependent helicase WRN [480-1251] (UniProt Q14191)             IC50          nM        32
3  CCc1c(N2CCN(C(=O)c3nc4c(cc3O)COCC4)CC2)c(=O)n2nc(-c3ccc4c(c3)COC4)nc2n1CC(=O)Nc1ccc(C(F)(F)F)cc1Cl  Bifunctional 3'-5' exonuclease/ATP-dependent helicase WRN [480-1251] (UniProt Q14191)             IC50          nM        48
4  CCc1c(N2CCN(C(=O)c3ncnc(C)c3O)CC2)c(=O)n2nc(-c3cnc4cn(C)nc4c3)nc2n1CC(=O)Nc1ccc(C(F)(F)F)cc1Cl  Bifunctional 3'-5' exonuclease/ATP-dependent helicase WRN [480-1251] (UniProt Q14191)             IC50          nM        57
5  CCc1c(N2CCN(C(=O)c3ncnc(C)c3O)CC2)c(=O)n2nc(C3=CCOCC3)nc2n1CC(=O)Nc1ccc(OC(F)F)cc1F  Bifunctional 3'-5' exonuclease/ATP-dependent helicase WRN [480-1251] (UniProt Q14191)             IC50          nM        77

// query Recall and state the measured IC50 for CCc1c(N2CCN(C(=O)c3ncnc(C)c3O)CC2)c(=O)n2nc(-c3cc(F)c4ncccc4c3F)nc2n1CC(=O)Nc1ccc(C(F)(F)F)cc1Cl .
// result 22

// query Recall and state the measured IC50 for CCc1c(N2CCN(C(=O)c3ncnc(C)c3O)CC2)c(=O)n2nc(-c3cc(F)c4nn(C)cc4c3)nc2n1CC(=O)Nc1ccc(C(F)(F)F)cc1Cl .
// result 29

// query Recall and state the measured IC50 for CCc1c(N2CCN(C(=O)c3ncnc(C)c3O)CC2)c(=O)n2nc(-c3cncc4c3cnn4C)nc2n1CC(=O)Nc1ccc(C(F)(F)F)cc1Cl .
// result 32.9

// query Recall and state the measured IC50 for CCc1c(N2CCN(C(=O)c3ncnc(C)c3O)CC2)c(=O)n2nc(-c3ccc(S(=O)(=O)N4CCC4)cc3)nc2n1CC(=O)Nc1ccc(C(F)(F)F)cc1Cl .
// result 18

// query Recall and state the measured IC50 for CCc1c(N2CCN(C(=O)c3ncnc(C)c3O)CC2)c(=O)n2nc(-c3ccc4c(c3)n(C)c(=O)n4C)nc2n1CC(=O)Nc1ccc(C(F)(F)F)cc1Cl .
// result 30

// query Recall and state the measured IC50 for CCc1c(N2CCN(C(=O)c3ncnc(C)c3O)CC2)c(=O)n2nc(-c3ccn4c(C)ncc4c3)nc2n1CC(=O)Nc1ccc(C(F)(F)F)cc1Cl .
// result 34

// query Recall and state the measured IC50 for CCc1c(N2CCN(C(=O)c3ncnc(C)c3O)CC2)c(=O)n2nc(-c3ccc4c(c3)CCOC4)nc2n1CC(=O)Nc1ccc(C(F)(F)F)cc1Cl .
// result 34.4
